B1: KCNG1 (parent)
chain: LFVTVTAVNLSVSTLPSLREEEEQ

# Variants of: B1
# experimental.details: protein stability index of a GFP-peptide fusion (GPS, HEK-293T) (PSI 1-6); higher = more stable;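 further: lentivirally expressed fusions sorted by FACS into six bins by GFP to DsRed ratio, PSI derived from sequencing read proportions per bin multiplied by bin number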
# details: c terminus: a fixed tail appended
reported.property: protein stability index
Write the number on its own, no unit after it.

Request: Entry T14V : reported protein stability index = ?
Result: 2.13

Request: Entry E22M : reported protein stability index = ?
Result: 3.4

Request: Entry Q24N : reported protein stability index = ?
Result: 2.31

Request: Entry S13H : reported protein stability index = ?
Result: 1.29

Request: Entry E21R : reported protein stability index = ?
Result: 2.43

Request: Entry L10D : reported protein stability index = ?
Result: 2.76

Request: Entry T14H : reported protein stability index = ?
Result: 2.56

Request: Entry L10G : reported protein stability index = ?
Result: 2.16

Request: Entry V12Q : reported protein stability index = ?
Result: 1.4

Request: Entry V5W : reported protein stability index = ?
Result: 2.3

Request: Entry S13F : reported protein stability index = ?
Result: 1.52

Request: Entry L10Y : reported protein stability index = ?
Result: 1.95

Request: Entry T14D : reported protein stability index = ?
Result: 1.52

Request: Entry E22T : reported protein stability index = ?
Result: 2.14

Request: Entry L1P : reported protein stability index = ?
Result: 4.33

Request: Entry A7Y : reported protein stability index = ?
Result: 3.4

Request: Entry V3E : reported protein stability index = ?
Result: 4.93

Request: Entry L1Y : reported protein stability index = ?
Result: 1.97

Request: Entry P16R : reported protein stability index = ?
Result: 1.75

Request: Entry A7G : reported protein stability index = ?
Result: 1.5

Request: Entry S17C : reported protein stability index = ?
Result: 1.79

Request: Entry A7D : reported protein stability index = ?
Result: 2.89

Request: Entry S17N : reported protein stability index = ?
Result: 1.7

Request: Entry V12H : reported protein stability index = ?
Result: 1.53

Request: Entry V12S : reported protein stability index = ?
Result: 1.85

Request: Entry S11H : reported protein stability index = ?
Result: 1.72

Request: Entry V5T : reported protein stability index = ?
Result: 3.16

Request: Entry V3W : reported protein stability index = ?
Result: 1.91

Request: Entry L15T : reported protein stability index = ?
Result: 3.77

Request: Entry F2M : reported protein stability index = ?
Result: 1.26

Request: Entry N9T : reported protein stability index = ?
Result: 3.74

Request: Entry E22I : reported protein stability index = ?
Result: 2.19

Request: Entry V8Q : reported protein stability index = ?
Result: 1.85

Request: Entry L10H : reported protein stability index = ?
Result: 2.44

Request: Entry N9D : reported protein stability index = ?
Result: 1.45

Request: Entry S17G : reported protein stability index = ?
Result: 2.51

Request: Entry T4L : reported protein stability index = ?
Result: 1.08

Request: Entry E22Q : reported protein stability index = ?
Result: 3.16

Request: Entry V5Y : reported protein stability index = ?
Result: 2.14

Request: Entry L18P : reported protein stability index = ?
Result: 2.48

Request: Entry R19F : reported protein stability index = ?
Result: 3.41

Request: Entry A7K : reported protein stability index = ?
Result: 3.01

Request: Entry V12C : reported protein stability index = ?
Result: 2.79

Request: Entry V3M : reported protein stability index = ?
Result: 1.75

Request: Entry V8T : reported protein stability index = ?
Result: 2.09

Request: Entry P16S : reported protein stability index = ?
Result: 2.05
